# credit: patent US11827646B2

test system: SMN protein in SMA patient fibroblast cells (GM03813); test: SMN protein assay in cultured cells (SMN HTRF); assay type: cell-based; settings: Homo sapiens, SMA Type 1 patient fibroblasts, 48 hours, fold increase relative to vehicle control, read-out: max. fold increase of SMN protein
What maximal fold induction was measured for each of the following?
Give bare numbers.

Chemical smiles	Recorded endpoint	Recorded result
Cc1cn2nc(-c3cc(=O)n4cc(N5C[C@@H](C)N[C@@H](C)C5)cc(C)c4n3)ccc2n1	maximal fold induction	1.79
Cc1cn2nc(-c3cc(=O)n4cc(N5C[C@@H](C)N[C@@H](C)C5)ccc4n3)cc(C)c2n1	maximal fold induction	1.76
Cc1cn2nc(-c3cc(=O)n4cc(N5CCN[C@H](C)C5)cc(C)c4n3)cc(C)c2n1	maximal fold induction	1.79

Lab note: next compound to report on.
Q: In one line, give reported maximal fold induction of the entry "Cc1cn2nc(-c3cc(=O)n4cc(N5CCNC6(CC6)C5)cc(C)c4n3)cc(C)c2n1" .
Result: 1.72

----------
test system: SMN protein in SMA patient fibroblast cells (GM03813); assay: SMN protein assay in cultured cells (SMN HTRF); assay type: cell-based; settings: Homo sapiens, SMA Type 1 patient fibroblasts, 48 hours, 7-point concentration curve, 1.5 times SMN protein vs vehicle, read-out: EC1.5x SMN protein (EC1.5x concentration for SMN protein expression)
Could you please mark YES for values of EC (1.5-fold) below 0.007 µM and NO for values at or above it?

Look over these answered cases.
Chemical smiles	Group label
Cc1cn2nc(-c3cc(=O)n4cc(N5CCN[C@H](C)C5)cc(C)c4n3)ccc2n1	YES
Cc1cn2nc(-c3cc(=O)n4cc(N5CCNC(C)(C)C5)cc(C)c4n3)ccc2n1	NO
Cc1cn2nc(-c3cc(=O)n4cc(N5CCN[C@H](C)C5)ccc4n3)cc(C)c2n1	YES
CC[C@@H]1CN(c2ccc3nc(-c4ccc5nc(C)cn5n4)cc(=O)n3c2)CCN1	NO
Cc1cn2nc(-c3cc(=O)n4cc(N5CCN6CCC[C@H]6C5)ccc4n3)cc(C)c2n1	NO

Q: Input "Cc1cn2nc(-c3cc(=O)n4cc(N5CCN6CCC[C@]6(C)C5)ccc4n3)ccc2n1" ; condition: EC (1.5-fold) strictly below 0.007 µM. Does it hold?
Result: NO

Q: Bench note: check whether "Cc1cn2nc(-c3cc(=O)n4cc(N5C[C@@H](C)N[C@@H](C)C5)cc(C)c4n3)ccc2n1" shows EC (1.5-fold) below 0.007 µM
Result: NO

Q: Is EC (1.5-fold) strictly under 0.007 µM for the entry "Cc1cn2nc(-c3cc(=O)n4cc(N5CCNC(C)(C)C5)ccc4n3)cc(C)c2n1" ?
Result: NO

Q: I'd appreciate it if you could check whether "Cc1cn2nc(-c3cc(=O)n4cc(N5C[C@H](C)N[C@@H](C)C5)ccc4n3)ccc2n1" has EC (1.5-fold) smaller than 0.007 µM.
Result: YES

Q: Hello, I'm reviewing records and need to know if EC (1.5-fold) of "Cc1cn2nc(-c3cc(=O)n4cc(N5C[C@H](C)N[C@@H](C)C5)ccc4n3)cc(C)c2n1" is below 0.007 µM. Could you check?
Result: YES

Q: Threshold test, EC (1.5-fold) < 0.007 µM: "Cc1cn2nc(-c3cc(=O)n4cc(N5CCN6CCC[C@H]6C5)ccc4n3)ccc2n1"
Result: NO

Q: # check: EC (1.5-fold) < 0.007 µM for "Cc1cn2nc(-c3cc(=O)n4cc(N5CC[C@@H](N6CCCC6)C5)ccc4n3)cc(C)c2n1"
Result: NO

Q: # strict comparison: is reported EC (1.5-fold) < 0.007 µM? input = "Cc1cn2nc(-c3cc(=O)n4cc(N5CCN(C)CC5)ccc4n3)ccc2n1"
Result: NO

Q: # TODO verify EC (1.5-fold) < 0.007 µM strictly for this molecule: "Cc1cn2nc(-c3cc(=O)n4cc(N5CCN[C@@H](C)C5)cc(C)c4n3)ccc2n1"
Result: YES

Q: Record "Cc1cn2nc(-c3cc(=O)n4cc(N5CCNC(C)(C)C5)ccc4n3)ccc2n1" : is its EC (1.5-fold) strictly below 0.007 µM?
Result: NO

----------
system: SMN protein in SMA patient fibroblast cells (GM03813); assay: SMN protein assay in cultured cells (SMN HTRF); format: cell-based; details: Homo sapiens, SMA Type 1 patient fibroblasts, 48 hours, fold increase relative to vehicle control, read-out: max. fold increase of SMN protein
Hi there, I'd appreciate the recorded maximal fold induction for every entry that follows.

For every item in the list below, what is its measured maximal fold induction?
1. Cc1cn2nc(-c3cc(=O)n4cc(N5C[C@@H](C)N[C@@H](C)C5)cc(C)c4n3)cc(C)c2n1
2. Cc1cn2nc(-c3cc(=O)n4cc(N5CCN6CCC[C@]6(C)C5)ccc4n3)cc(C)c2n1
3. Cc1cn2nc(-c3cc(=O)n4cc(N5CCCNCC5)ccc4n3)cc(C)c2n1
4. Cc1cn2nc(-c3cc(=O)n4cc(N5CCNC6(CC6)C5)cc(C)c4n3)ccc2n1
5. Cc1cn2nc(-c3cc(=O)n4cc(N5CCN[C@H](C)C5)ccc4n3)ccc2n1
6. Cc1cn2nc(-c3cc(=O)n4cc(N5CCN6CCC[C@H]6C5)ccc4n3)ccc2n1
7. Cc1cn2nc(-c3cc(=O)n4cc(N5CCN6CCC[C@@]6(C)C5)ccc4n3)cc(C)c2n1
8. Cc1cn2nc(-c3cc(=O)n4cc(N5C[C@H](C)N[C@@H](C)C5)cc(C)c4n3)ccc2n1

Result:
1.52
1.84
1.95
1.87
1.77
1.94
1.71
1.85

----------
System: SMN protein in SMA patient fibroblast cells (GM03813)
Assay: SMN protein assay in cultured cells (SMN HTRF)
Format: cell-based
Conditions: Homo sapiens, SMA Type 1 patient fibroblasts, 48 hours, fold increase relative to vehicle control, read-out: max. fold increase of SMN protein
From the text: The term “EC1.5x concentration for SMN protein expression” (or “EC1.5x SMN protein”) is defined as that concentration of test compound that is effective in producing 1.5 times the amount of SMN protein in an SMA patient fibroblast cell compared to the amount produced from the vehicle control. The SMN HTRF (homogeneous time resolved fluorescence) assay is used to quantify the level of SMN protein in SMA patient fibroblast cells treated with test compounds. […]
Record form. Attribute: maximal fold induction. Fill in for each entry.
Give bare numbers.

Consider the following illustrative entries.
Molecule	Test target	maximal fold induction
Cc1cn2nc(-c3cc(=O)n4cc(N5CCNC6(CC6)C5)ccc4n3)ccc2n1 [Example 19]	SMN protein in SMA patient fibroblast cells (GM03813)	1.83
Cc1cn2nc(-c3cc(=O)n4cc(N5C[C@@H](C)N[C@@H](C)C5)ccc4n3)ccc2n1 [Example 14]	SMN protein in SMA patient fibroblast cells (GM03813)	1.86
Cc1cn2nc(-c3cc(=O)n4cc(N5C[C@H](C)N[C@@H](C)C5)ccc4n3)ccc2n1 [Example 32]	SMN protein in SMA patient fibroblast cells (GM03813)	1.88

Give one value of maximal fold induction per listed molecule.
1. Cc1cn2nc(-c3cc(=O)n4cc(N5CC[C@H](N6CCCC6)C5)ccc4n3)cc(C)c2n1 [Example 30]
2. Cc1cn2nc(-c3cc(=O)n4cc(N5CC[C@@H](N6CCCC6)C5)ccc4n3)cc(C)c2n1 [Example 18]
3. Cc1cn2nc(-c3cc(=O)n4cc(N5CCN(C)CC5)ccc4n3)ccc2n1 [Example 1]
4. Cc1cn2nc(-c3cc(=O)n4cc(N5CCN[C@@H](C)C5)cc(C)c4n3)ccc2n1 [Example 33]
5. Cc1cn2nc(-c3cc(=O)n4cc(N5C[C@H](C)N[C@@H](C)C5)ccc4n3)cc(C)c2n1 [Example 29]

Result:
1: 1.84; 2: 1.75; 3: 1.84; 4: 1.82; 5: 1.81

Need maximal fold induction for each of these molecules.
1. Cc1cn2nc(-c3cc(=O)n4cc(N5CC[C@H](N6CCCC6)C5)ccc4n3)ccc2n1 [Example 31]
2. Cc1cn2nc(-c3cc(=O)n4cc(N5CCNC(C)(C)C5)cc(C)c4n3)ccc2n1 [Example 36]

Result:
1. 1.65
2. 1.77
